Kindly state RP-LC retention time for each of the entries shown.
experimental.protocol: gradient 5% acetonitrile 3 min, to 50% in 2 min, to 85% in 15 min, held 3 min, 100 µL/min
condition.summary: column: Zorbax Extend-C18 2.1 x 50 mm; eluents: water / acetonitrile, 0.1% formic acid
# number then unit; no other words

INSERT INTO measurements (input_smiles, result) VALUES
  ('O=C(NCCc1ccccc1)NCCn1c(-c2ccccc2)nc2cccnc21', '683 s');

Kindly give each listed record's RP-LC retention time.
1. Cc1nn(CC(=O)NC2CCCCC2)c(=O)c2c(-n3cccc3)n(-c3ccc(Cl)cc3)nc12
2. CCN1C(=O)COc2ccc(-c3noc(/C=C/c4ccc(OC)c(OC)c4)n3)cc21
3. N#Cc1nnn(-c2ccc(Cl)cc2)c1N
4. CCC(=O)Nc1ccc(C2(C(=O)NCCN3CCCC3)CCCCC2)cc1

["1130 s", "1050 s", "816 s", "606 s"]
